Tested on: NCI-H322M lung
MEASUREMENT_DESCRIPTION: NCI-60 one-dose screen, 48 h
MEASUREMENT_CONTEXT: 10 µM unless noted
The panel holds about 83,000 compounds, 20% with a hit somewhere; the sample as a whole holds those more often. Calls of active or inactive are those of the source. The calls were made as follows: active = growth percent below 10; inactive = the rest.
Outcome (select one): 1.0 (active), 0.0 (inactive)

{"COMPOUND": "COC1CC(C)C(OC)c2cc(O)cc(c2O)NC(=O)/C(C)=C/C=C\\C(C)C(OC(N)=O)/C(C)=C\\C(C)C1OC (centres undefined)", "CLASSIFICATION": 0.0}
{"COMPOUND": "Cc1ccccc1NC(=O)Cc1csc2[n+]1C(=O)/C(=C/c1ccc([N+](=O)[O-])cc1)S2", "CLASSIFICATION": 0.0}

q: Dear all, I need the recorded test outcome for O=C1/C(=C\c2ccc([N+](=O)[O-])cc2)CS(=O)(=O)C/C1=C/c1ccc([N+](=O)[O-])cc1 , thank you.
a: 1.0

q: Dear all, I need the recorded test outcome for O=[N+]([O-])c1ccc(Oc2ccccc2Cl)c([N+](=O)[O-])c1 , thank you.
a: 0.0

q: Dear all, I need the recorded test outcome for CCOc1cc(F)c([N+](=O)[O-])cc1[N+](=O)[O-] , thank you.
a: 0.0

###

Tested on: EKVX NSCLC
MEASUREMENT_DESCRIPTION: NCI-60 one-dose screen, 48 h (100 = growth as untreated, 0 = no growth, -100 = all killed)
MEASUREMENT_CONTEXT: 10 µM unless noted
Procedure: Growth inhibition of the EKVX human Non-Small Cell Lung tumor cell line is measured as a screen for anti-cancer activity. Cells are grown in 96 well plates and exposed to the test compound for 48 hours. Compounds are tested at a single concentration, which is 10^-5 M for most compounds. The reported endpoint is percent growth (GI% or GIPRCNT), where numbers from 0 - 100% represent growth inhibition, and numbers from -100% - 0 represent cell death. […]
Compounds without any hit were thinned out: in the full panel of roughly 83,000, 20% have a hit.
PROPERTY_NAME: growth (%)
The reply should contain only the number, in %.

Guide cases for growth, answers given:
{"COMPOUND": "O=[N+]([O-])c1ccc2c(c1)Cc1ccccc1-2", "PROPERTY_NAME": "growth", "MEAS_VALUE": 61.1}
{"COMPOUND": "CCCCCCCCCCCC1N=C(N)N=C(N)N1c1cccc(Br)c1 (stereo not drawn)", "PROPERTY_NAME": "growth", "MEAS_VALUE": 43.2}
{"COMPOUND": "CCN(CC)CCNc1ccc([N+](=O)[O-])c2sc3ccccc3c(=O)c12", "PROPERTY_NAME": "growth", "MEAS_VALUE": 23.1}

Looking up COc1cc(NC(=O)C2=C(C)NC(C)=C(C(=O)Nc3cc(OC)c(Cl)cc3OC)C2c2cccc([N+](=O)[O-])c2)c(OC)cc1Cl , I see its growth listed as 28.7

###

System: HCT-116 colon
MEASUREMENT_DESCRIPTION: NCI-60 one-dose screen, 48 h (100 = growth as untreated, 0 = no growth, -100 = all killed)
MEASUREMENT_CONTEXT: 10 µM unless noted
Experimental: Growth inhibition of the HCT-116 human tumor cell line is measured as a screen for anti-cancer activity. Cells are grown in 96 well plates and exposed to the test compound for 48 hours. Compounds are tested at a single concentration, which is 10^-5 M for most compounds. The reported endpoint is percent growth (GI% or GIPRCNT), where numbers from 0 - 100% represent growth inhibition, and numbers from -100% - 0 represent cell death. For example, a value of 40 represents 60% growth inhibition. […]
About 83,000 compounds went through this panel and 20% of them were active in at least one assay; those are over-represented in the sample as a whole.
Quick rule for you: growth at 20% or higher means rule met, lower means rule not met.

Illustrative cases are given below, each with its answer.
{"MOLECULE": "CCCCCCCCCCCC[n+]1ccc2ccccc2c1", "STUDY_TARGET": "HCT-116 colon", "CLASSIFICATION": "rule not met"}
{"MOLECULE": "Cc1ccc2cccc(OC(=O)Nc3cccc(C(F)(F)F)c3)c2n1", "STUDY_TARGET": "HCT-116 colon", "CLASSIFICATION": "rule met"}

q: Please indicate if the recorded growth for C[C@@]1(CO)[C@H](O)CC[C@@]2(C)[C@H]1CC[C@H]1C[C@@H]3C[C@@]12CC[C@@]3(O)COC(=O)CN meets or exceeds 20%.
a: rule met

q: Please indicate if the recorded growth for OC(CSc1ccccc1)CN1CCN(c2ccc(Cl)cc2)CC1 (stereo not drawn) meets or exceeds 20%.
a: rule met

q: Please indicate if the recorded growth for CC1(O)CCCCCC1 meets or exceeds 20%.
a: rule met

q: Please indicate if the recorded growth for O=C1C=CC(=O)N1C1CCCCCCCCCCC1 meets or exceeds 20%.
a: rule not met

q: Please indicate if the recorded growth for CN=C(N)N/N=C(\C)c1ccc2c(c1)Cc1ccccc1-2 meets or exceeds 20%.
a: rule not met

q: Please indicate if the recorded growth for c1ccc(C2NCCNC2c2ccccc2)cc1 (stereo not drawn) meets or exceeds 20%.
a: rule met

q: Please indicate if the recorded growth for COc1cc(NC(=O)C2=C(C)NC(C)=C(C(=O)Nc3cc(OC)c(Cl)cc3OC)C2c2cccc([N+](=O)[O-])c2)c(OC)cc1Cl meets or exceeds 20%.
a: rule met

q: Please indicate if the recorded growth for Nc1ccc(C(=O)/C=C/c2ccccc2)cc1 meets or exceeds 20%.
a: rule met

###

growth: recorded values
Test system: SF-295 CNS
MEASUREMENT_DESCRIPTION: NCI-60 one-dose screen, 48 h (100 = growth as untreated, 0 = no growth, -100 = all killed)
MEASUREMENT_CONTEXT: 10 µM unless noted
The panel holds about 83,000 compounds, 20% with a hit somewhere; the sample as a whole holds those more often.
The reply should contain only the number, in %.

{"MOLECULE": "O=C(OC12CC3CC(CC(C3)C1)C2)c1ccc(NCc2cc(O)ccc2O)cc1", "UNIT_NAME": "%", "growth": -14.7}

Switching to the query record.
Looking up Cc1nn(CCO)c(C)c1N=[N+]([O-])c1c(C)nn(CCO)c1C , I see its growth listed as 100

###

System: MOLT-4 leukemia
MEASUREMENT_DESCRIPTION: NCI-60 one-dose screen, 48 h (100 = growth as untreated, 0 = no growth, -100 = all killed)
MEASUREMENT_CONTEXT: 10 µM unless noted
The panel holds about 83,000 compounds, 20% with a hit somewhere; the sample as a whole holds those more often.
Quick rule for you: growth at 80% or higher means rule met, lower means rule not met.

Illustrative cases are given below, each with its answer.
{"COMPOUND": "C/C(=N\\NC(=S)N1CC2CCC(CC2)C1)c1ccccn1", "CLASSIFICATION": "rule not met"}
{"COMPOUND": "O=C(c1ccccc1)C(Br)C(Br)c1ccccc1 (stereo unspecified)", "CLASSIFICATION": "rule not met"}
{"COMPOUND": "Cc1ccccc1NC(=O)Cc1csc2[n+]1C(=O)/C(=C/c1ccc([N+](=O)[O-])cc1)S2", "CLASSIFICATION": "rule met"}
{"COMPOUND": "CCCCN(CCCC)CCCCCCCCCCO", "CLASSIFICATION": "rule met"}

q: Please indicate if the recorded growth for CN(C)c1ccc2cc3c(cc2c1)Oc1ccccc1N3.[Cl][Zn][Cl] meets or exceeds 80%.
a: rule not met

q: Please indicate if the recorded growth for CN(C)c1ccc(C(=C2C=CC(=[N+](C)C)C=C2)c2ccc(N(C)C)cc2)cc1 meets or exceeds 80%.
a: rule not met

q: Please indicate if the recorded growth for Cc1cc(I)nc2ccccc12 meets or exceeds 80%.
a: rule met

q: Please indicate if the recorded growth for Oc1ccc2ccccc2c1N=Nc1nccs1 meets or exceeds 80%.
a: rule not met

q: Please indicate if the recorded growth for CCCCCC[C@@H](O)C/C=C\CCCCCCCC(=O)OCCOC meets or exceeds 80%.
a: rule met

q: Please indicate if the recorded growth for S=C=Nc1ccc(N2CCOCC2)cc1 meets or exceeds 80%.
a: rule met

q: Please indicate if the recorded growth for CCOc1cc(F)c([N+](=O)[O-])cc1[N+](=O)[O-] meets or exceeds 80%.
a: rule not met

q: Please indicate if the recorded growth for Clc1ccccc1C(c1ccccc1)(c1ccccc1)n1ccnc1 meets or exceeds 80%.
a: rule not met

q: Please indicate if the recorded growth for COc1ccc2nc3cc(Cl)ccc3c(NCCCCCN3CCCCC3)c2c1 meets or exceeds 80%.
a: rule not met

q: Please indicate if the recorded growth for CCN(CC)CCNC(Cc1ccccc1)c1ccc(OCc2ccccc2)cc1 (stereo unspecified) meets or exceeds 80%.
a: rule not met

q: Please indicate if the recorded growth for O=C1C=CC(=O)c2c(O)c(CO)c(CO)c(O)c21 meets or exceeds 80%.
a: rule met

q: Please indicate if the recorded growth for O=C1C=CC(=O)N1c1ccc(O)cc1 meets or exceeds 80%.
a: rule met

q: Please indicate if the recorded growth for NC(=S)Nc1ccc2c(c1)Cc1ccccc1-2 meets or exceeds 80%.
a: rule met

q: Please indicate if the recorded growth for O=C(c1ccccc1)c1cc2ccccc2oc1=O meets or exceeds 80%.
a: rule met

q: Please indicate if the recorded growth for N#CC(=C1SCS1)[N+](=O)[O-] meets or exceeds 80%.
a: rule not met
